TGI values by entry
Tested on: CCRF-CEM leukemia
test description: NCI tumour cell line growth inhibition, 48 h

| compound | TGI |
| --- | --- |
| CC(=C(C(=O)O)C(=O)O)c1cc(-c2cccs2)cc(-c2ccc(Cl)cc2)c1O | > 76.5 µM |
| O=S1c2ccc(Cl)cc2CC(SSC2Cc3cc(Cl)ccc3S(=O)c3ccccc32)c2ccccc21 (stereo not given) | > 100 µM |
| CNC1C(O)CC(OC2C/C=C(\C)C/C(C)=C/C=C/CCC(C)CNC(=O)/C=C/C=C/C2C)OC1C (stereo not given) | 0.758 µM |
| Cc1nc2ccc(N=NN(C)C)cc2[nH]1 | > 100 µM |
| CC(CCC(=O)O)[C@H]1CCC2[C@H]3C(CC(=O)[C@@]21C)[C@@]1(C)CCC(O)C[C@H]1C[C@@H]3O (stereo not given in full) | > 100 µM |

---

System: OVCAR-3 ovarian
test description: NCI tumour cell line growth inhibition, 48 h

| compound | comparison sign | TGI, µM |
| --- | --- | --- |
| C[C@]12CCC(=O)C=C1CC[C@@H]1[C@@H]2CC[C@]2(C)C(=O)/C(=C/c3cccc(OCCN4CCOCC4)c3)C[C@@H]12 | = | 16 |
| COc1ccccc1NC(=O)C1=C(C)NC(C)=C(C(=O)Nc2ccccc2OC)C1c1ccccc1OC | > | 100 |
| CN1CCN(Cc2ccc(NC(=O)c3cncc(C#Cc4c(N)ncc5cc(F)ccc45)c3)cc2C(F)(F)F)CC1 | = | 4.98 |
| CCCCCNC1=CC(=O)c2ccccc2C1=O | = | 65 |
| CCCCCCCCCCCC(=O)OCC1OC(n2cc(F)c(=O)[nH]c2=O)C(N)C(O)C1O (stereo not given) | > | 100 |
| O=C1CCSc2c(cnc3ccccc23)N1 | > | 100 |
| CN(CCC(=O)O)S(=O)(=O)c1ccccc1 | > | 100 |
| COc1ccc(F)cc1C(=O)c1cnc(NC2CCN(S(C)(=O)=O)CC2)nc1N | = | 14.6 |
| CSC(=S)NNC(=O)c1ccncc1 | = | 51.3 |
| O=c1[nH]c2ccsc2c(=O)n1COCc1ccccc1 | > | 100 |

---

Tested on: DU-145 prostate
test description: NCI tumour cell line growth inhibition, 48 h; in the data active means GI50 below about 0.43 µM; inactive means the rest
Outcome codes: label 1 for active, label 0 for inactive

| molecule | label class |
| --- | --- |
| Cc1ccc2sc3c(NCCCNCCO)nc4ccccc4c3c(=O)c2c1 | label 0 |
| O=C1/C(=C/C(Cl)=C/c2ccccc2)SC(=S)N1CCc1ccc(O)cc1 | label 0 |
| Clc1ccc(CO/N=C(\Cn2ccnc2)c2ccc(Cl)cc2Cl)c(Cl)c1 | label 0 |
| CCOn1cc(C2=C(c3c[nH]c4ccccc34)C(=O)NC2=O)c2ccccc21 | label 1 |
| C/C(=C\c1ccn(-c2ccc(N)cc2)n1)[C@@H]1C[C@@H]2O[C@]2(C)CCC[C@H](C)[C@H](O)[C@@H](C)C(=O)C(C)(C)[C@@H](O)CC(=O)O1 | label 1 |
| COc1ccc2c(c1)Cc1c-2c(NN)nc2ccccc12 | label 0 |
| COc1cc(C(=O)n2nc(N3CCN(C)CC3)c3cc(N)ccc32)cc(OC)c1OC | label 0 |
| CN(C)CC1CCn2c(c(C3=C(c4cn(C)c5ccccc45)C(=O)NC3=O)c3ccccc32)C1 (configuration not stated) | label 0 |
| Cc1ccc(C(=O)NC2CCCCC2)cc1-c1ccc(C(=O)NCC2CC2)cc1 | label 0 |
| CN1CCN(Cc2ccc(NC(=O)c3cncc(C#Cc4c(N)ncc5cc(F)ccc45)c3)cc2C(F)(F)F)CC1 | label 0 |
| CCCC(=O)NNc1[nH]c(-c2ccc(OC)cc2)cc1C(=O)OCC | label 0 |
| COc1cc(-c2nc3ccccc3s2)ccc1OCc1nc2n(n1)S(=O)(=O)c1ccccc1N2C | label 0 |
| COC(=O)c1c2c(c(C)[n+]([O-])c1C)C(=O)C(NCc1ccc(F)c(F)c1)=CC2=O | label 0 |
| Cn1cnc2c(NCc3ccccc3)nc(NCCO)nc21 | label 0 |
| Nc1ccn([C@@H]2C=C(CO)[C@@H](O)[C@H]2O)c(=O)n1 | label 1 |
| CCCCCCCCCCCCCCCCOCCCOP(=O)(O)C1CCCN(O)C1=O (configuration not stated) | label 0 |
| COc1cnc2c(c1)C(=O)c1c-2n(CCCN2CCN(C)CC2)c(=O)c2cc(Cl)ccc12 | label 0 |

---

Test system: SNB-75 CNS
test description: NCI tumour cell line growth inhibition, 48 h
assay endpoint: TGI

| compound | result |
| --- | --- |
| O=c1c2c3c(sc2nc2n1N=CN(c1ccc(Cl)cc1)C2)CCCC3 | > 100 µM |
| CCC[CH2][Sn]([CH2]CCC)([S]C1=NCCS1)[S]C1=NCCS1 | 1.39 µM |
| Cc1cc(C)nc(SC2=C(Nc3cccc(Cl)c3)C(=O)N(Cc3ccccc3)C2=O)n1 | > 170 µM |
| O=S1c2ccc(Cl)cc2CC(SSC2Cc3cc(Cl)ccc3S(=O)c3ccccc32)c2ccccc21 (centres undefined) | > 100 µM |
| CCCCCCCCCCCC(=O)OCC1OC(n2cc(F)c(=O)[nH]c2=O)C(N)C(O)C1O (centres undefined) | > 100 µM |
| CCOC(=O)C1C(c2ccc([N+](=O)[O-])cc2)NC(c2ccc([N+](=O)[O-])cc2)C(C(=O)OC)S1(=O)=O (centres undefined) | > 100 µM |
| COC1/C=C\OC2(C)Oc3c(C)c(O)c4c(O)c(c(CN(C)C)c(O)c4c3C2=O)NC(=O)/C(C)=C\C=C/C(C)C(O)C(C)C(O)C(C)C(OC(C)=O)C1C (centres undefined) | > 100 µM |
| O=c1[nH]c2ccsc2c(=O)n1COCc1ccccc1 | > 100 µM |
| CNC(=S)NNC1=NCCCCN1 | > 100 µM |
| COC(=O)c1cc(C#N)[nH]c1-c1cccs1 | > 100 µM |
| C#C[C@]1(O)CC[C@H]2[C@@H]3CCC4=C/C(=N\OCCN5CCCC5)CC[C@]4(C)[C@H]3CC[C@@]21C | 24.7 µM |
| C#C[C@@]1(O)[C@@H](CO)O[C@@H](n2cc(F)c3c(N)ncnc32)[C@@H]1O | 2.32 µM |
| Clc1ccc2nc(CCSCCc3nc4ccc(Cl)cc4[nH]3)[nH]c2c1 | 34.5 µM |
| CCCCCNC1=CC(=O)c2ccccc2C1=O | 49.4 µM |
| O=C(NN1C(=O)c2ccccc2C1=O)c1ccccc1Nc1ccccc1C(=O)NN1C(=O)c2ccccc2C1=O | > 100 µM |
| CC1=CCC[C@]2(C)C1=CC(=O)O[C@H]2c1ccoc1 | > 100 µM |
| C=C[C@]1(C)C=C2C(=O)[C@@]3(O)OC(=O)[C@@]4(CCCC(C)(C)[C@H]34)[C@@]2(O)CC1 | 2.45 µM |
| CC(C)(O)[C@H]1[C@@H]2OC(=O)[C@H]1[C@]1(O)C[C@H]3OC34C(=O)O[C@H]2[C@@]41C (some centres undefined) (tested in a mixture with another compound) | > 100 µM |
| COC(=O)/C(=C/CC(N=C(c1ccccc1)c1ccccc1)C(=O)OC)N=C(c1ccccc1)c1ccccc1 (centres undefined) | 83.9 µM |

---

System: A498 renal
test description: NCI tumour cell line growth inhibition, 48 h
As shown below, each of these compounds has a reported TGI value.

| compound | comparison sign | TGI [µM] |
| --- | --- | --- |
| O=C1/C(=C/c2ccc(Cl)cc2)CN(C(=O)C(Cl)Cl)C/C1=C\c1ccc(Cl)cc1 | = | 0.771 |
| C[C@]12CCC(=O)C=C1CC[C@@H]1[C@@H]2CC[C@]2(C)C(=O)/C(=C/c3cccc(OCCN4CCOCC4)c3)C[C@@H]12 | = | 36.1 |
| COc1ccc(C(CC(=O)c2ccccc2)C(=O)c2ccc3c(c2)OCO3)cc1 (stereo not given) | > | 100 |
| CO[C@H]1CC[C@@]2(C)C(=CC[C@H]3[C@@H]4C[C@H](O)C[C@@]4(C)CC[C@@H]32)C1 | = | 9.25 |
| Cc1nc2ccc(N=NN(C)C)cc2[nH]1 | > | 100 |
| NC(=O)Oc1cc(OC(N)=O)cc(N(CCCl)CCCl)c1 | = | 29.3 |
| CC(Oc1ccc(Cl)cc1Cl)C(=O)NN1C(=O)CSC1c1ccc(Cl)cc1 (stereo not given) | = | 80 |
| COc1ccc(OC)c2cc(C3(C)SCCCS3)ccc12 | > | 100 |
| Cc1ccc(S(=O)(=O)n2cnc(CC(NC(=O)C3CCC(=O)N3C(=O)OCc3ccccc3)C(=O)N3CCCC3C(=O)NN)c2)cc1 (stereo not given) | > | 100 |
| O=C(NCC#CCO)C(F)(F)F | > | 100 |
